target: PTPN2 (Homo sapiens); construct: full-length recombinant; experiment: mobility shift enzyme assay with labelled insulin receptor phosphopeptide; format: biochemical
Sequence (P17706 whole entry): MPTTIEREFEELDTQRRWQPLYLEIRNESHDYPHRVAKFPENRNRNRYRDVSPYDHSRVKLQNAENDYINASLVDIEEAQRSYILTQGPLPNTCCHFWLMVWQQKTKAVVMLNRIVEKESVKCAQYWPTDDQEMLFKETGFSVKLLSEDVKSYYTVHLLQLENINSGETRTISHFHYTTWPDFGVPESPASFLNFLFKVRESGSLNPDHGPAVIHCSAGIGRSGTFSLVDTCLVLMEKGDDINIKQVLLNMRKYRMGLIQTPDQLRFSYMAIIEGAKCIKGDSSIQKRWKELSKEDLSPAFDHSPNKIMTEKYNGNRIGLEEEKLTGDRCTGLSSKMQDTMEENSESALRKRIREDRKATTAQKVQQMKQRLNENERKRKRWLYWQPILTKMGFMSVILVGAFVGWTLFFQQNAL
reportedMetric: pIC50
The quantity pIC50 is defined as the negative base-10 logarithm of the molar concentration.

Observed pIC50 on PTPN2 (Homo sapiens), entry O=C1CN(c2c(O)cc3ccc(NCC4CC4)cc3c2F)S(=O)(=O)N1 [A-650] , equals 8.41

---

Target: Plk4 (Homo sapiens)
Sequence (O00444 1-970): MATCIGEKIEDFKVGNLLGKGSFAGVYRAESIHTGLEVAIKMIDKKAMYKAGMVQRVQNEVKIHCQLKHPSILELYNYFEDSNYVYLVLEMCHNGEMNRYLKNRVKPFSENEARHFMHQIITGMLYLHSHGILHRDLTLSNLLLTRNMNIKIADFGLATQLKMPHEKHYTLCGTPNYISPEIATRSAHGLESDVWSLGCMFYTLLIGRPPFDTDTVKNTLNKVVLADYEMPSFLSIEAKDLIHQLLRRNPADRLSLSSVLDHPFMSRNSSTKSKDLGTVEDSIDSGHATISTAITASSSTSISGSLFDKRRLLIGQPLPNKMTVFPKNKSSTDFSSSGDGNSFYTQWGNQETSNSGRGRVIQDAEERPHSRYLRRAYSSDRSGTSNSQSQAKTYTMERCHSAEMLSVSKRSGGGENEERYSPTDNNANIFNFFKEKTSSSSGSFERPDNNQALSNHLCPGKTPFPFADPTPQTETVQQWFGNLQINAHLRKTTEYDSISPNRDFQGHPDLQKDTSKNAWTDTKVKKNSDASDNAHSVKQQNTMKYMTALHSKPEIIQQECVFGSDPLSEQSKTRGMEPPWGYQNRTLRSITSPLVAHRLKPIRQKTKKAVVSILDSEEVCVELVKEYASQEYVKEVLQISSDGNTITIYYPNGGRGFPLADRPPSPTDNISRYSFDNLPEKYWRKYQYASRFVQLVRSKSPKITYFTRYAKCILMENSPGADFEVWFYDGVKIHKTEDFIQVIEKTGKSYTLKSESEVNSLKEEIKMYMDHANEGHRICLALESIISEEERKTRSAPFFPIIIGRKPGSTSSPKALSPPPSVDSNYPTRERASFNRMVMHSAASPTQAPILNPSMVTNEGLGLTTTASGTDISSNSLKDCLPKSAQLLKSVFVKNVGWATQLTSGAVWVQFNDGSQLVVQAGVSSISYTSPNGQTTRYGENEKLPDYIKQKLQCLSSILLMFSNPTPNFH
reportedMetric: IC50

// "CC(C)CCN[C@@H]1CCc2cc(O)c(N3CC(=O)NS3(=O)=O)c(F)c2C1" : IC50 value = > 10 µM

Provenance of the data: paper PMC10599993
